Test Target: TF/VIIa (Homo sapiens, UniProt P08709)
Construct: recombinant human factor VIIa
Sequence (P08709 61-212 limits assumed): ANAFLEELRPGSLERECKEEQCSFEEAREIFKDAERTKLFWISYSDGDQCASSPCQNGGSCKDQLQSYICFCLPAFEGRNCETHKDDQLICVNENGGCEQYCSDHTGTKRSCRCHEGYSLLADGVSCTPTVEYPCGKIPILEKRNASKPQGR
Sequence (P08709 213-466 limits assumed): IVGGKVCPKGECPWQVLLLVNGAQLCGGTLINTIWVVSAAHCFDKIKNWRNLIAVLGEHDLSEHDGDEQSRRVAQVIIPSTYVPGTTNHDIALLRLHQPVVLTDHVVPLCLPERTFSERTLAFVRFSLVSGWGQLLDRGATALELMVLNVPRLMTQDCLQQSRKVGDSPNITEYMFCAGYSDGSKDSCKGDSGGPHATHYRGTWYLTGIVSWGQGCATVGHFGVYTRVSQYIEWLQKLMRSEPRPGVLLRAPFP
Sequence (P13726 33-251 partner limits assumed): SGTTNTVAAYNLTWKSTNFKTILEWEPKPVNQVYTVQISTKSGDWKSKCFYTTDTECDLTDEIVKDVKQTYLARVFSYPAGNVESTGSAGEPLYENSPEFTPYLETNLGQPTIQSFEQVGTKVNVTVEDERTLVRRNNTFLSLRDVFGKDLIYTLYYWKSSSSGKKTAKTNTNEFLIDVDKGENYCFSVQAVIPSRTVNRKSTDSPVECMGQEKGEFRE
Assay Procedure: Factor VIIa/TF inhibitory assay (chromogenic substrate, OD 405 nm)
Condition Info: recombinant human factor VIIa with recombinant soluble tissue factor
Result Type: IC50 (nM)
Express it in nM; write the number only.

Data point: COC(COS(=O)(=O)O)C(=O)NC(C(=O)N1C(C(=O)NCCC2=CCN(C(=N)N)C2)CC2CC(O)C(O)CC21)C(Cl)C(C)C (stereo not shown) ; IC50 = 9
